The molecules listed here are annotated with their log10 of Ki.
# TARGET_OR_SYSTEM: WT EZH2 (Homo sapiens (Human), UniProt Q15910)
# Sequence (Q15910 whole entry, looked up): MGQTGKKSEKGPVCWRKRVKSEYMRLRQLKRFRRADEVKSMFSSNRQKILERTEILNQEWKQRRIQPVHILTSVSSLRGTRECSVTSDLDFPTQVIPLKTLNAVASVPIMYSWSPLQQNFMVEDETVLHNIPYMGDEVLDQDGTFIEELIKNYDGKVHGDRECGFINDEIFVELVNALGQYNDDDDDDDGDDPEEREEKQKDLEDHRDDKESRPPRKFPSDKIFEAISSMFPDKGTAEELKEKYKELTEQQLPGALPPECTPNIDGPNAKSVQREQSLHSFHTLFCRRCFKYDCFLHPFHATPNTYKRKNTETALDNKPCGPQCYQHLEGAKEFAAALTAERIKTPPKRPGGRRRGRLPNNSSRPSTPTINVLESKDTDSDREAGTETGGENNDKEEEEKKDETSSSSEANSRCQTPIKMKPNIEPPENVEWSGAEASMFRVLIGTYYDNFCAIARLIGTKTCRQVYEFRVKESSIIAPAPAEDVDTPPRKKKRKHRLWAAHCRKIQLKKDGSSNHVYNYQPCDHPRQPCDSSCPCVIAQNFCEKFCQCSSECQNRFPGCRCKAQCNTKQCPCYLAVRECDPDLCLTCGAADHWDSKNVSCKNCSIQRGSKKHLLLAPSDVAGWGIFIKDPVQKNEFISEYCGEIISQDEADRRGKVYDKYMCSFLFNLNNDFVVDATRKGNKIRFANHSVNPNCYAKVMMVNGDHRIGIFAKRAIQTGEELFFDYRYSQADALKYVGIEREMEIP
# Sequence (O75530 whole entry partner, looked up): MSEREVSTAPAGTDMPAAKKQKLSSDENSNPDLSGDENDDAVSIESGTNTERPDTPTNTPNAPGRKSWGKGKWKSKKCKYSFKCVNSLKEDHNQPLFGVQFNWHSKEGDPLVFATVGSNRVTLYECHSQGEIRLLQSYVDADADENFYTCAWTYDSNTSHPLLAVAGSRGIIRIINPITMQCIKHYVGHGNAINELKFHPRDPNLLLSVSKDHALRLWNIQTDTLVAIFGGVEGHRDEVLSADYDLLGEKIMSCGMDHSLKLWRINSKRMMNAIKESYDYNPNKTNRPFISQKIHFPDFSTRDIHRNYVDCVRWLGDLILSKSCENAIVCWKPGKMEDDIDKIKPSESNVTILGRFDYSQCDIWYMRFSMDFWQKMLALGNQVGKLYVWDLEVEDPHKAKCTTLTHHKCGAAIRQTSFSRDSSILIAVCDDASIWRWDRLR
# Sequence (Q15022 whole entry partner, looked up): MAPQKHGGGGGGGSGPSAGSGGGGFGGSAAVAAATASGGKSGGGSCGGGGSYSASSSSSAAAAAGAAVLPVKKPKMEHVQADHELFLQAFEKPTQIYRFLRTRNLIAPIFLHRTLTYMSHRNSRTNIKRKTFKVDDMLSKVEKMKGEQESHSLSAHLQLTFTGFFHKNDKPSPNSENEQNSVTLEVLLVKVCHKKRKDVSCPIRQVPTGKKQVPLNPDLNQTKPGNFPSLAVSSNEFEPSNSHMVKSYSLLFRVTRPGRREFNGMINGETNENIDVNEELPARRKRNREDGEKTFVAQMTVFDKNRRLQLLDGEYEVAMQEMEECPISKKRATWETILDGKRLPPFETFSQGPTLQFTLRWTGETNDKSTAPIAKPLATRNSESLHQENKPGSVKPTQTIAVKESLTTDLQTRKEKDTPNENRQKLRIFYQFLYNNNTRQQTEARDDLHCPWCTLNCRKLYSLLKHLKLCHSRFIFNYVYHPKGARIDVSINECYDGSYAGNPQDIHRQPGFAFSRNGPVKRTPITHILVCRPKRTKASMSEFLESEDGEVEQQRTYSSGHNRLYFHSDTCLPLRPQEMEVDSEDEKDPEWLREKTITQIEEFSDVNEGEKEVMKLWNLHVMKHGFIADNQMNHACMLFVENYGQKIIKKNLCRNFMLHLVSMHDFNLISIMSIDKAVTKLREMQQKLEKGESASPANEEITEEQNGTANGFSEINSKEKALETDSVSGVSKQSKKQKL
# Sequence (Q09028 whole entry partner, looked up): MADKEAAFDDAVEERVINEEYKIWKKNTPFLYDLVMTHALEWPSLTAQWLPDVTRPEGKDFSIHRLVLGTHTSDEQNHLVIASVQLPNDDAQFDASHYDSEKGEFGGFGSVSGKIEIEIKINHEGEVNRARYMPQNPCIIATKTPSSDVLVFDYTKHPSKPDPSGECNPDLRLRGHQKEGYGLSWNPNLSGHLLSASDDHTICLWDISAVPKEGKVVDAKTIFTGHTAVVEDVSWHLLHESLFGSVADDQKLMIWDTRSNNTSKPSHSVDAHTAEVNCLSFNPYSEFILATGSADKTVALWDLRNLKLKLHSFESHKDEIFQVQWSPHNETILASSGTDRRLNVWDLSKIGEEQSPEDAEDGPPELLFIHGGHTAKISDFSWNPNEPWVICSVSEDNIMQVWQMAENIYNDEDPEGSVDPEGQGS
# TEST: WT EZH2 nucleosome assay (10X SAM, high SAM conditions)
# Type: biochemical
# SETUP_CONDITIONS: 15 uM SAM, Ki app from competitive inhibition fit, read-out: WT EZH2 Nucleosome assay (10X SAM) Ki
EXPERIMENTAL_ENDPOINT: log10 of Ki (log10 of the value in µM)

{"columns": ["MOLECULE", "log10 of Ki"],
 "data": [
  ["COC(c1cc(Cl)c2c(c1Cl)C(=O)N(Cc1c(C)cc(C)[nH]c1=O)CC2)C1CCS(=O)(=O)C1 (single isomer, unassigned) [Example 149]", -0.27],
  ["Cc1cc(C)c(CN2CCc3c(Cl)cc([C@H](CO)[C@H]4CCCO4)c(Cl)c3C2=O)c(=O)[nH]1 [Example 13]", -2.52],
  ["Cc1cc(C)c(CN2CCc3c(Cl)cc(C(CO)N4CC[C@H](F)C4)c(Cl)c3C2=O)c(=O)[nH]1 (single isomer, unassigned) [Example 62]", -1.46],
  ["Cc1cc(C)c(CN2CCc3c(Cl)cc([C@H](C)CO)c(Cl)c3C2=O)c(=O)[nH]1 [Example 18]", -0.94],
  ["COC(c1cc(C)c2c(c1Cl)C(=O)N(Cc1c(C)cc(C)[nH]c1=O)CC2)C1CCN(C2COC2)CC1 (single isomer, unassigned) [Example 154]", -1.35],
  ["COC(c1cc(Cl)c2c(c1Cl)C(=O)N(Cc1c(C)cc(C)[nH]c1=O)CC2)C1CCOCC1 (single isomer, unassigned) [Example 50]", -1.11]
]}

FYI, the data here is from patent US10570121B2.
